test system: Vero E6; assay: cell viability relative to DMSO; higher = less toxic; conditions: 72 h; 1 nM
For each of the compounds below, state its cell viability.
I only need the number, in %, no unit after it.

input: Record lookup: for Vero E6, what cell viability belongs to COc1cc2nccc(Oc3ccc(NC(=O)NC4CC4)c(Cl)c3)c2cc1C(N)=O ?
output: 102

input: Similarly, O=S1(=O)CCN(CN2CCS(=O)(=O)NC2)CN1 ?
output: 114

input: Similarly, CC[C@]12CCCN3CCc4c(n(c5ccccc45)C(=O)C1)[C@@H]32 ?
output: 103

input: Similarly, FCc1ccc(OCCOc2ccc(Cl)cc2Cl)c(Cl)n1 ?
output: 95.2

input: Similarly, OC1(c2ccc(Cl)c(C(F)(F)F)c2)CCN(CCCC(c2ccc(F)cc2)c2ccc(F)cc2)CC1 ?
output: 105

input: Similarly, COC(=O)c1csc(C(=O)c2c[nH]c3ccccc23)n1 ?
output: 95

input: Similarly, O=C[C@H](O)[C@@H](O)[C@H](O)CO ?
output: 96.7

input: Similarly, COc1ccc2[nH]c(-c3ccccc3)c(CCNC(C)=O)c2c1 ?
output: 101

input: Similarly, O=C(O)c1ccccc1Nc1cccc(C(F)(F)F)c1 ?
output: 104

input: Similarly, CCN(CC)CCOc1ccc(Nc2ncc3cc(-c4c(Cl)cccc4Cl)c(=O)n(C)c3n2)cc1 ?
output: 95

input: Similarly, CN(C)C(=O)c1cc2cnc(Nc3ccc(N4CCNCC4)cn3)nc2n1C1CCCC1 ?
output: 95.5

input: Similarly, CC1(C)S[C@@H]2[C@H](NC(=O)Cc3ccccc3)C(=O)N2[C@H]1C(=O)O ?
output: 99.5

input: Similarly, Cn1cc(-c2cnc3ccc4ccc(CS(=O)(=O)NCc5ccccn5)cc4c(=O)c3c2)cn1 ?
output: 104

input: Similarly, O=C(O)c1ccc(-n2nc(-c3ccccc3O)nc2-c2ccccc2O)cc1 ?
output: 104

input: Similarly, CCOCCOc1ccccc1C(N)=O [etosalamide] ?
output: 104

---

system: Calu-3; experiment: cell viability relative to DMSO; higher = less toxic; details: 72 h; 1000 nM
measured.parameter: cell viability (%)
I only need the number, in %, no unit after it.

input: Data request, read-out cell viability, for FCc1ccc(OCCOc2ccc(Cl)cc2Cl)c(Cl)n1
output: 97.9

input: Similarly, C[N+](C)(C)CCCCCNCC12CC3CC(CC(C3)C1)C2 ?
output: 98.2

input: Similarly, Cc1ccc(S(=O)(=O)NC2c3ccccc3Oc3ccccc32)cc1 ?
output: 96.5

input: Similarly, COc1ccc(-c2cc(=O)c3c(O)c(OC)c(O)cc3o2)cc1OC ?
output: 93.9

input: Similarly, C[C@@H](c1ncncc1F)[C@](O)(Cn1cncn1)c1ccc(F)cc1F ?
output: 99.8

input: Similarly, Cc1oc(-c2ccccc2)nc1CCOc1ccc(CC2SC(=O)NC2=O)c2sccc12 (centres undefined) ?
output: 97.5

input: Similarly, CC[C@H](/C=C/[C@@H](C)[C@H]1CC[C@H]2[C@@H]3CC=C4C[C@@H](O)CC[C@]4(C)[C@H]3CC[C@]12C)C(C)C [Stigmasterol (Stigmasterin)] ?
output: 102

input: Similarly, Oc1ccc2[nH]cc(C3=CCNCC3)c2n1 ?
output: 104

input: Similarly, CC(C)(C)c1cc(C(=O)/C(C#N)=N/Nc2cccc(Cl)c2)no1 ?
output: 102
